Test system: HeLa
Assay: Antiproliferative activity against human HeLa cells after 48 hrs by CellTiter 96 aqueous one solution assay
Type: functional, cell-based
pIC50: −log10 of the molar value.
measurement_name: pIC50

[[record]]
smiles_representation = "COCC[n+]1c2c(n(Cc3ccccc3)c1/C=C/c1cccc(O)c1)C(=O)c1ccccc1C2=O"
system = "HeLa"
recorded_number = 5.31

[[record]]
smiles_representation = "COCC[n+]1c2c(n(Cc3ccccc3)c1C)C(=O)c1ccccc1C2=O"
system = "HeLa"
recorded_number = 5.00

[[record]]
smiles_representation = "CC[n+]1c2c(n(C(C)C)c1/C=C/c1cccc(O)c1)C(=O)c1ccccc1C2=O"
system = "HeLa"
recorded_number = 4.89

[[record]]
smiles_representation = "CC[n+]1c2c(n(C3CC3)c1/C=C/c1ccc(O)c(OC)c1)C(=O)c1ccccc1C2=O"
system = "HeLa"
recorded_number = 4.73

[[record]]
smiles_representation = "COCC[n+]1c2c(n(Cc3cccc(OC)c3)c1/C=C/c1cccc(O)c1)C(=O)c1ccccc1C2=O"
system = "HeLa"
recorded_number = 5.13

[[record]]
smiles_representation = "COCC[n+]1c2c(n(Cc3ccccc3)c1/C=C/C=C/c1ccccc1)C(=O)c1ccccc1C2=O"
system = "HeLa"
recorded_number = 5.89

[[record]]
smiles_representation = "COCC[n+]1c2c(n(Cc3cccc(OC)c3)c1/C=C/c1cc(OC)c(OC)c(OC)c1)C(=O)c1ccccc1C2=O"
system = "HeLa"
recorded_number = 5.12

[[record]]
smiles_representation = "CC[n+]1c2c(n(C(C)C)c1/C=C/c1ccc(C)cc1)C(=O)c1ccccc1C2=O"
system = "HeLa"
recorded_number = 5.95

[[record]]
smiles_representation = "CC[n+]1c2c(n(C3CC3)c1/C=C/c1ccccc1)C(=O)c1ccccc1C2=O"
system = "HeLa"
recorded_number = 5.18

[[record]]
smiles_representation = "COCC[n+]1c2c(n(Cc3ccccc3)c1/C=C/c1ccc(O)c(OC)c1)C(=O)c1ccccc1C2=O"
system = "HeLa"
recorded_number = 5.95


P. CC[n+]1c2c(n(C3CC3)c1/C=C/c1cccc([N+](=O)[O-])c1)C(=O)c1ccccc1C2=O
Q. CC[n+]1c2c(n(C(C)C)c1/C=C/c1c[nH]c3ccccc13)C(=O)c1ccccc1C2=O
R. COCC[n+]1c2c(n(Cc3cccc(OC)c3)c1/C=C/c1c[nH]c3ccccc13)C(=O)c1ccccc1C2=O
Query: Output the entries ranked by pIC50 from maximum down to minimum. # the answer lists labels in the order requested
Response: R, Q, P

a. CC[n+]1c2c(n(C(C)C)c1/C=C/c1ccc([N+](=O)[O-])cc1)C(=O)c1ccccc1C2=O
b. CC[n+]1c2c(n(C3CC3)c1/C=C/c1c[nH]c3ccccc13)C(=O)c1ccccc1C2=O
Query: Hi team, can someone confirm which has the larger pIC50: a or b ? Thanks. Selection: enter the item's label.
Response: b

###

Tested on: PC-3
Assay: Antiproliferative activity against human PC3 cells after 48 hrs by CellTiter 96 aqueous one solution assay
Type: functional, cell-based
Conditions: PC-3, 48 h
measurement_name: IC50 (nM)

// below: answered compounds
[[record]]
smiles_representation = "CC[n+]1c2c(n(C3CC3)c1/C=C/c1cccc([N+](=O)[O-])c1)C(=O)c1ccccc1C2=O"
recorded_number = 28

[[record]]
smiles_representation = "CC[n+]1c2c(n(C(C)C)c1/C=C/c1ccc(O)c(OC)c1)C(=O)c1ccccc1C2=O"
recorded_number = 90


A. COCC[n+]1c2c(n(Cc3cccc(OC)c3)c1/C=C/c1c[nH]c3ccccc13)C(=O)c1ccccc1C2=O
B. CC[n+]1c2c(n(C(C)C)c1/C=C/c1ccc([N+](=O)[O-])cc1)C(=O)c1ccccc1C2=O
C. COCC[n+]1c2c(n(Cc3ccccc3)c1/C=C/c1ccc(O)c(OC)c1)C(=O)c1ccccc1C2=O
D. COCC[n+]1c2c(n(Cc3ccccc3)c1C)C(=O)c1ccccc1C2=O
E. CC[n+]1c2c(n(C(C)C)c1/C=C/c1cccc(O)c1)C(=O)c1ccccc1C2=O
Query: Sort entries by IC50 from minimum to maximum value. # the answer lists labels in the order requested
Response: C, B, D, E, A
(C: 22 nM, B: 39 nM, D: 73 nM, E: 140 nM, A: 215 nM)

a. CC[n+]1c2c(n(C(C)C)c1/C=C/c1ccc(C)cc1)C(=O)c1ccccc1C2=O
b. COCC[n+]1c2c(n(Cc3cccc(OC)c3)c1/C=C/c1cc(OC)c(OC)c(OC)c1)C(=O)c1ccccc1C2=O
Query: Hi team, can someone confirm which has the larger IC50: a or b ? Thanks. Selection: enter the item's label.
Response: b
